system: 4T1 (mouse triple-negative breast cancer cells); experiment: MTT viability assay / IC50 determination in 4T1 cells; format: cell-based; conditions: 10 or 20 μM, 48 h, Figure S74
Readout Label: cytotoxicity (viability of 4T1 cells), MTT assay

>>> reported("C=Cc1cc(O)c(Cc2c(O)cc(C=C)c3c2ccc2c(C)c(O)ccc23)c2c1-c1ccc(O)c(C)c1CC2")
"cytotoxic"
>>> reported("C=Cc1cc(O)cc2c1-c1cc(-c3cc4c(c(C)c3O)CCc3cc(O)cc(C=C)c3-4)c(O)c(C)c1CC2")
"cytotoxic"
>>> reported("Cc1c(O)ccc2c1CCc1cc(O)cc(C3CC=Cc4c5c(cc(O)c43)CCc3c-5ccc(O)c3C)c1-2 (centres unmarked)")
"cytotoxic"

* * *

test system: 4T1 (mouse triple-negative breast cancer cells); test: Impedance measurement (xCELLigence RTCA, cell index) in 4T1 cells; format: cell-based; conditions: 20 μM, 48 h
Readout Label: cytotoxic effect on 4T1 cells, impedance measurements (cell index)

# count of solved cases: 5
>>> reported("C=Cc1cc(O)cc2c1-c1ccc(OC)c(C)c1CC2")
"not cytotoxic"
>>> reported("Cc1c(O)ccc2c1CCc1cc(O)cc(CO)c1-2")
"not cytotoxic"
>>> reported("Cc1c(O)ccc2c1CCc1cc(O)cc(C=O)c1-2")
"not cytotoxic"
>>> reported("C=Cc1c(C)c(O)cc2c1-c1ccc(O)c(C)c1CC2 [juncusol]")
"moderate cytotoxicity"
>>> reported("C=Cc1c(C)c(O)cc2c1-c1ccc(OC)c(C)c1CC2 [compressin A]")
"not cytotoxic"

In: Please give measured cytotoxic effect on 4T1 cells, impedance measurements (cell index) of the following entry: COC(C)c1cc(O)cc2c1-c1ccc(O)c(C)c1CC2 (stereo not shown) [effususol A]
Out: not cytotoxic

In: Please give measured cytotoxic effect on 4T1 cells, impedance measurements (cell index) of the following entry: C=C[C@@]1(C)C(=O)C2=C(C[C@H]1O)c1ccc(O)c(C)c1CC2 [jinflexin C]
Out: moderate cytotoxicity

* * *

test system: D3 (hCMEC/D3 human cerebral microvascular endothelial cells); test: MTT viability assay / IC50 determination in D3 endothelial cells; format: cell-based; conditions: 10 or 20 μM, 48 h, Figure S74
Readout Label: cytotoxicity (viability of D3 cells), MTT assay

>>> reported("Cc1c(O)ccc2c1CCc1cc(O)cc(C3CC=Cc4c5c(cc(O)c43)CCc3c-5ccc(O)c3C)c1-2 (centres unmarked)")
"cytotoxic"
>>> reported("C=Cc1cc(O)cc2c1-c1cc(-c3cc4c(c(C)c3O)CCc3cc(O)cc(C=C)c3-4)c(O)c(C)c1CC2")
"cytotoxic"
>>> reported("C=Cc1cc(O)c(Cc2c(O)cc(C=C)c3c2ccc2c(C)c(O)ccc23)c2c1-c1ccc(O)c(C)c1CC2")
"cytotoxic"

* * *

Measured IC50, listed per entry.
test system: MDA-MB-231 (human triple-negative breast cancer cells); assay: MTT viability assay / IC50 determination in MDA-MB-231 cells; type: cell-based; settings: Homo sapiens, MDA-MB-231, 48 h, MTT assay, 48 h treatment, n = 6–8; read-out: IC50 [95% C.I.], MDA-MB-231
Quick note: give the figure in µM, leave out the unit.

>>> reported("COc1cccc2c1C(=O)c1c(O)c3c(c(O)c1C2=O)C[C@@](O)(C(=O)CO)C[C@@H]3O[C@H]1C[C@H](N)[C@H](O)[C@H](C)O1 [doxorubicin, reference compound]")
0.8

Now for another entry.
In: Please give measured IC50 of the following entry: C=Cc1cc(O)c(Cc2c(O)cc(C=C)c3c2ccc2c(C)c(O)ccc23)c2c1-c1ccc(O)c(C)c1CC2 [Compound 12, Gerardiin L]
Out: 7.3
